tested on: 1A9; experiment: Cytotoxicity against human 1A9 cells by MTT assay; type: functional, cell-based
So I've got a bunch of molecules here, and I need their pIC50 values.
Note: pIC50 values are expressed as the negative base-10 logarithm of concentration in M.

Prompt: Name the recorded pIC50 for CC(=O)O[C@H]1C(=O)[C@@]2(C)[C@H]([C@H](OC(=O)c3ccccc3)[C@]3(O)C[C@H](OC(=O)[C@H](O)[C@H](CC(C)C)NC(=O)OC(C)(C)C)C(C)=C1C3(C)C)[C@]1(OC(C)=O)CO[C@@H]1C[C@@H]2O .
Completion: 8.62

Prompt: Entry to check: CCC(=O)O[C@H]1C(=O)[C@@]2(C)[C@H]([C@H](OC(=O)c3cccc(OC)c3)[C@]3(O)C[C@H](OC(=O)[C@H](O)[C@H](C=C(C)C)NC(=O)OC(C)(C)C)C(C)=C1C3(C)C)[C@]1(OC(C)=O)CO[C@@H]1C[C@@H]2O
Completion: 8.48

* * *

Exercise: for every item that follows, state its recorded Kb.
system: microtubule (Bos taurus); assay: Binding affinity to microtubule (Bos taurus) after 30 mins at 40 degC by flutax-2 displacement method
The reply should consist of the numeric value with the unit placed after it.

Prompt: Can you look up the measured Kb of CCC(=O)O[C@H]1C(=O)[C@@]2(C)[C@H]([C@H](OC(=O)c3cccc(N=[N+]=[N-])c3)[C@]3(O)C[C@H](OC(=O)[C@H](O)[C@@H](NC(=O)OC(C)(C)C)c4ccccc4)C(C)=C1C3(C)C)[C@]1(OC(C)=O)CO[C@@H]1C[C@@H]2O for me?
Completion: 355 ×10⁷ /M

Prompt: Please answer likewise for C/C=C(\C)C(=O)N[C@@H](c1ccccc1)[C@@H](O)C(=O)O[C@H]1C[C@@]2(O)[C@@H](OC(=O)c3cccc(N=[N+]=[N-])c3)[C@@H]3[C@]4(OC(C)=O)CO[C@@H]4C[C@H](OC(=O)CC)[C@@]3(C)C(=O)[C@H](O)C(=C1C)C2(C)C
Completion: 52 ×10⁷ /M

Prompt: Same for CC(=O)O[C@H]1C(=O)[C@@]2(C)[C@H]([C@H](OC(=O)c3ccccc3)[C@]3(O)C[C@H](OC(=O)[C@H](O)[C@H](CC(C)C)NC(=O)OC(C)(C)C)C(C)=C1C3(C)C)[C@]1(OC(C)=O)CO[C@@H]1C[C@@H]2O
Completion: 2.7 ×10⁷ /M

* * *

assay: Cytotoxicity against human 1A9PTX10 cells by MTT assay; type: functional, cell-based; conditions: 1A9/ptx-10
pIC50: −log10 of the molar value.
Please mark Y if the recorded pIC50 is equal to or greater than 8, and N if it falls below.

Prompt: Quick check: does CCC(=O)O[C@H]1C(=O)[C@@]2(C)[C@H]([C@H](OC(=O)c3cccc(OC)c3)[C@]3(O)C[C@H](OC(=O)[C@H](O)[C@H](C=C(C)C)NC(=O)OC(C)(C)C)C(C)=C1C3(C)C)[C@]1(OC(C)=O)CO[C@@H]1C[C@@H]2O have pIC50 greater than or equal to 8?
Completion: Y

Prompt: Try this compound too: CC(=O)O[C@H]1C(=O)[C@@]2(C)[C@H]([C@H](OC(=O)c3ccccc3)[C@]3(O)C[C@H](OC(=O)[C@H](O)[C@H](CC(C)C)NC(=O)OC(C)(C)C)C(C)=C1C3(C)C)[C@]1(OC(C)=O)CO[C@@H]1C[C@@H]2O
Completion: Y

Prompt: And the next one, CC(=O)O[C@@]12CO[C@@H]1C[C@H](O)[C@@]1(C)C(=O)[C@H](OC(=O)N(C)C)C3=C(C)[C@@H](OC(=O)[C@H](O)[C@H](C=C(F)F)NC(=O)OC(C)(C)C)C[C@@](O)([C@@H](OC(=O)c4ccccc4)[C@H]21)C3(C)C ?
Completion: Y

Prompt: Here is the next compound: CC(=O)O[C@H]1C(=O)[C@@]2(C)[C@H]([C@H](OC(=O)c3ccccc3)[C@]3(O)C[C@H](OC(=O)[C@H](O)[C@@H](NC(=O)c4ccccc4)c4ccccc4)C(C)=C1C3(C)C)[C@]1(OC(C)=O)CO[C@@H]1C[C@@H]2O
Completion: N

Prompt: And what about the compound CCC(=O)O[C@H]1C(=O)[C@@]2(C)[C@H]([C@H](OC(=O)c3cccc(N=[N+]=[N-])c3)[C@]3(O)C[C@H](OC(=O)[C@H](O)[C@@H](NC(=O)OC(C)(C)C)c4ccccc4)C(C)=C1C3(C)C)[C@]1(OC(C)=O)CO[C@@H]1C[C@@H]2O ?
Completion: Y
